- Measured on: Sterol O-acyltransferase 1 (Rattus norvegicus)
- Method description: Serum hypolipidemic activity in rats
- Assay type: functional
Measurement label: SS (%)
Record the value in %, omitting the unit from your answer.

For CCCCc1ccc(NC(=O)N(CCCC)CCCC)cc1 , what is its reported SS?
63

For CCCCN(Cc1ccccc1)C(=O)Nc1ccc(Cl)cc1C , what is its reported SS?
72

For O=C(Nc1ccccc1C(F)(F)F)N(Cc1ccccc1)Cc1ccccc1 , what is its reported SS?
165

For CCCCN(Cc1ccccc1)C(=O)Nc1c(C)cccc1C , what is its reported SS?
68

For CCCCCCN(CCCCCC)C(=O)Nc1ccc(C)cc1C , what is its reported SS?
59

For CCCCCCCN(Cc1ccco1)C(=O)Nc1c(Cl)cc(Cl)cc1Cl , what is its reported SS?
37

For Cc1ccc(NC(=O)Nc2ccc(C)cc2C)c(C)c1 , what is its reported SS?
100

For Cc1cc(C)c(NC(=O)N(Cc2ccccc2)Cc2ccccc2)cc1C , what is its reported SS?
47

For CCCCN(Cc1ccccc1)C(=O)Nc1cccc(C(F)(F)F)c1 , what is its reported SS?
84

For CCCCN(CCCC)C(=O)Nc1cc(C)ccc1C , what is its reported SS?
127

For Cc1ccc(NC(=O)N(CCC(C)CC(C)(C)C)CCC(C)CC(C)(C)C)c(C)c1 (configuration not stated) , what is its reported SS?
71

For CCCCN(CCCC)C(=O)Nc1cc(C)cc(C)c1 , what is its reported SS?
100

* * *

- Measured on: UniProt:O70536
- Sequence (O70536 whole entry): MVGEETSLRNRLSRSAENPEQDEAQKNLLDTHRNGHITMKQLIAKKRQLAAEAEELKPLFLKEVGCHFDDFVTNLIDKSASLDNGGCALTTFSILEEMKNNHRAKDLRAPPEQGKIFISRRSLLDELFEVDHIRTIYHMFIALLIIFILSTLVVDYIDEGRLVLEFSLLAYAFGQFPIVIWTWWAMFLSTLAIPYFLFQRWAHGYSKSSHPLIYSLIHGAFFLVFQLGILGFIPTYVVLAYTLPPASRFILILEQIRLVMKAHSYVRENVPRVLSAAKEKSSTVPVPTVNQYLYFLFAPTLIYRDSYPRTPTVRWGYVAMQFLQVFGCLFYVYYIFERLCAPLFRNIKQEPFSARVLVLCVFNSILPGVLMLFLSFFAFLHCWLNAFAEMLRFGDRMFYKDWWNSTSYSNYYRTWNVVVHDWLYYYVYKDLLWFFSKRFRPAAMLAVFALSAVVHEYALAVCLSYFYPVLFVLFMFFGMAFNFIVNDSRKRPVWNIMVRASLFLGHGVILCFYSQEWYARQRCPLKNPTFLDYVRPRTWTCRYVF
- Method description: In vitro percentage inhibition against Acyl coenzyme A:cholesterol acyltransferase derived from rat adrenals
- Parameters: concentration or dose not given beside the values
- Condition description: concentration not given here
For each of the molecules below, state its inhibition.
Record the value in %, omitting the unit from your answer.

For CCCCN(CCC12CC3CC(CC(C3)C1)C2)C(=O)Nc1ccc(C)cc1C , what is its reported inhibition?
56

For CCCCN(Cc1ccccc1)C(=O)Nc1cc(Cl)c(N)c(Cl)c1 , what is its reported inhibition?
61

For CCCCCCCCCN(CCCCCCCCC)C(=O)Nc1ccc(C)cc1C , what is its reported inhibition?
90

For CCCCN(CC(c1ccccc1)C1CCCCC1)C(=O)Nc1ccc(C)cc1C (stereo not drawn) , what is its reported inhibition?
74

For CCCCc1ccc(NC(=O)N(Cc2ccccc2)Cc2ccccc2)cc1 , what is its reported inhibition?
91

For CCCCCCCCCCN(CCCCCCCCCC)C(=O)Nc1ccc(C)cc1C , what is its reported inhibition?
64

For CCCCN(CCCC)C(=O)Nc1ccc([N+](=O)[O-])cc1Cl , what is its reported inhibition?
87

For Cc1ccc(NC(=O)Nc2ccc(C)cc2C)c(C)c1 , what is its reported inhibition?
10

For COc1ccccc1NC(=O)N(Cc1ccccc1)Cc1ccccc1 , what is its reported inhibition?
91

For Cc1cc(C)c(NC(=O)N(Cc2ccccc2)Cc2ccccc2)c(C)c1 , what is its reported inhibition?
37

For CCCCCCCCCCCCCCCCCCN(CCCCCCCCCCCCCCCCCC)C(=O)Nc1ccc(C)cc1C , what is its reported inhibition?
-6

For CCCCCCCC/C=C/CCCCCCCCN(Cc1ccc(CCCC)cc1)C(=O)Nc1ccc(C)cc1C (stereo in doubt; 160) , what is its reported inhibition?
42

For CCCCN(Cc1ccccc1)C(=O)Nc1ccc(C)cc1 , what is its reported inhibition?
78

For Cc1ccc(NC(=O)N(Cc2ccccc2)Cc2ccccc2)c(C)c1 , what is its reported inhibition?
90

For Cc1cc(Cl)ccc1NC(=O)N(Cc1ccccc1)Cc1ccccc1 , what is its reported inhibition?
63

For CCCCCCCN(CCCCCCC)C(=O)Nc1ccc(C)cc1C , what is its reported inhibition?
91

For O=C(Nc1cc(Cl)cc(Cl)c1)N(Cc1ccccc1)Cc1ccccc1 , what is its reported inhibition?
86

For CN(C(=O)Nc1cc(Cl)ccc1Cl)c1ccccc1 , what is its reported inhibition?
48

For CCCCN(CCCC)C(=O)Nc1cccc(C(C)=O)c1 , what is its reported inhibition?
51

For CCCCN(CCCCC1CCCCC1)C(=O)Nc1ccc(C)cc1C , what is its reported inhibition?
40

For Cc1ccc(NC(=O)N(CCCCC2CCCCC2)CCCCC2CCCCC2)c(C)c1 , what is its reported inhibition?
86

For CCCCN(CCCC)C(=O)Nc1cc(C)ccc1C , what is its reported inhibition?
96

For O=C(Nc1cc(F)ccc1F)N(Cc1ccccc1)Cc1ccccc1 , what is its reported inhibition?
72
